Assign pIC50 to each entry below.
- target.desc: human PDHK2 (hPDHK2) (Homo sapiens (Human), UniProt Q15119)
- protocol: Inhibitory action of PDHK activity in vitro (kinase reaction, residual PDH activity measured)
- Format: biochemical
- condition.set: read-out: PDHK inhibitory activity IC50
One number for each entry, as −log10 of the molar value.

// known answers, use as guide
Cc1nnc(-c2cccc3c2-c2ccccc2C3(O)C(F)(F)F)o1 (centres unmarked) [compound 267] :: 5.92
OC1(C(F)(F)F)c2ccccc2-c2c(C(F)(F)F)cccc21 (centres unmarked) [compound 64] :: 4.75
COC(=O)Cc1ccc2c(c1)C(O)(C(F)(F)F)c1ccccc1-2 (centres unmarked) [compound 353] :: 5.13
OC1(C(F)(F)F)c2ccccc2-c2ccc(Cc3ccccc3)cc21 (centres unmarked) [compound 317] :: 5.64
Cn1cc(-c2cc(C(=O)N3CCC[C@@H]3CO)cc3c2-c2ccccc2C3(O)C(F)(F)F)cn1 (some centres unmarked) [compound 392] :: 6.70

Could you now consider this next compound?
[ask] Quote pIC50 reported for Cc1cc(-c2cnn(CC(CO)CO)c2)c2c(c1)C(O)(C(F)(F)F)c1ccccc1-2 (single isomer, unassigned) [compound 663] please.
[reply] 7.74
